# Tested target: UniProt Q64663
# Method description: Antagonist activity at rat recombinant P2X7 receptor assessed as inhibition of BzATP-induced calcium flux by FLIPR assay
Observable: IC50

As a guide, the following entries are already answered.
- Smiles repr: "CS(=O)(=O)c1ccccc1CNc1ncnn1-c1cccc(Cl)c1Cl"
  IC50: "39.8 nM"
- Smiles repr: "Cc1nnc(NCc2cccnc2-c2ccsc2)n1-c1cccc(Cl)c1Cl"
  IC50: "45.7 nM"
- Smiles repr: "COc1cccc(CNc2ncnn2-c2cccc(Cl)c2Cl)c1"
  IC50: "1380 nM"
- Smiles repr: "COc1ccccc1Nc1ncnn1-c1cccc(Cl)c1Cl"
  IC50: "2040 nM"
- Smiles repr: "Cc1ccccc1CNc1ncnn1-c1cccc(Cl)c1Cl"
  IC50: "200 nM"

Now consider the entry below.
// query IC50 value for entry Clc1cccc(-n2cnnc2NCc2cccnc2)c1Cl 1120 nM

###

# Tested target: P2X purinoceptor 7 (Rattus norvegicus)
# Method description: Antagonist activity at rat recombinant P2X7 receptor assessed as inhibition of BzATP-induced calcium flux by FLIPR assay
Observable: IC50 (nM)
Report the figure in nM without appending any unit label.

Recorded IC50, per entry:
- Smiles repr: "COc1ccccc1CNc1ncnn1-c1cccc(Cl)c1Cl"
  Tested target: "P2X purinoceptor 7 (Rattus norvegicus)"
  Unit annotation: "nM"
  IC50: 708
- Smiles repr: "Clc1cccc(-n2cnnc2NCc2cccnc2Oc2cccnc2)c1Cl"
  Tested target: "P2X purinoceptor 7 (Rattus norvegicus)"
  Unit annotation: "nM"
  IC50: 35.5
- Smiles repr: "FC(F)(F)Oc1ccccc1Nc1ncnn1-c1cccc(Cl)c1Cl"
  Tested target: "P2X purinoceptor 7 (Rattus norvegicus)"
  Unit annotation: "nM"
  IC50: 5500

Let's switch to this compound now.
Entry CCc1ccccc1Nc1ncnn1-c1cccc(Cl)c1Cl has what IC50? 288

###

# Tested target: P2X purinoceptor 7 (Homo sapiens)
# Method description: Antagonist activity at human recombinant P2X7 receptor assessed as inhibition of BzATP-induced calcium flux by FLIPR assay
Each record here notes measured log10 IC50.
Please note: log10 values; quantity IC50; unit nM.

The following compounds have reported results that may help.
- Smiles repr: "Cc1ccc(CNc2ncnn2-c2cccc(Cl)c2Cl)cc1"
  Tested target: "P2X purinoceptor 7 (Homo sapiens)"
  Result: 2.68
- Smiles repr: "Cc1nnc(NCc2cccnc2-c2ccsc2)n1-c1cccc(Cl)c1Cl"
  Tested target: "P2X purinoceptor 7 (Homo sapiens)"
  Result: 1.60
- Smiles repr: "CCOc1ccccc1Nc1ncnn1-c1cccc(Cl)c1Cl"
  Tested target: "P2X purinoceptor 7 (Homo sapiens)"
  Result: 3.27
- Smiles repr: "CSc1ccccc1CNc1ncnn1-c1cccc(Cl)c1Cl"
  Tested target: "P2X purinoceptor 7 (Homo sapiens)"
  Result: 1.69
- Smiles repr: "Cc1ccccc1CNc1ncnn1-c1cccc(Cl)c1Cl"
  Tested target: "P2X purinoceptor 7 (Homo sapiens)"
  Result: 1.32

What log10 IC50 appears in the records for this compound with P2X purinoceptor 7 (Homo sapiens)? Cc1ccccc1Nc1ncnn1-c1cccc(Cl)c1Cl 1.25

###

# Tested target: P2X purinoceptor 7 (Homo sapiens)
# Sequence (Q99572 whole entry): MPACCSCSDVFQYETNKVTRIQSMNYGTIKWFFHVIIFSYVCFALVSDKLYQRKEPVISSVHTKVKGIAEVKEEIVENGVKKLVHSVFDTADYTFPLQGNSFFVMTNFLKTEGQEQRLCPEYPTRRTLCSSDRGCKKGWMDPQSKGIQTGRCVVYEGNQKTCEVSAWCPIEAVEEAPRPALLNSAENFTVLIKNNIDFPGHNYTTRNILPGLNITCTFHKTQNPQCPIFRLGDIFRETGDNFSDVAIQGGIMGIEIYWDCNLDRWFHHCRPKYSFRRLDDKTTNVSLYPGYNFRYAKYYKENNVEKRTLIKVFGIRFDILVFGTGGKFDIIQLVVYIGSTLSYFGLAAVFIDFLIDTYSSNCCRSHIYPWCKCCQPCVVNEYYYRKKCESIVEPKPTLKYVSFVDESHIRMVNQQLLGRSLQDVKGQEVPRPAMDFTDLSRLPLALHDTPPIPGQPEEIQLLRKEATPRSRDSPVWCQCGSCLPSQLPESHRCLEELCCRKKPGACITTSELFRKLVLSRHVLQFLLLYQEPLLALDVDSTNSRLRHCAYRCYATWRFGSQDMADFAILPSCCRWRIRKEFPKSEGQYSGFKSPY
# Method description: Antagonist activity at human recombinant P2X7 receptor assessed as inhibition of BzATP-induced calcium flux by FLIPR assay
# Assay type: functional
Entries annotated with measured log10 IC50
The common logarithm of IC50 in nM is what is listed.

- Smiles repr: "Clc1cccc(-n2cnnc2NCc2cccnc2N2CCCC2)c1Cl"
  Tested target: "P2X purinoceptor 7 (Homo sapiens)"
  log10 IC50: 1.17
- Smiles repr: "Clc1cccc(-n2ncnc2NCc2cccnc2)c1Cl"
  Tested target: "P2X purinoceptor 7 (Homo sapiens)"
  log10 IC50: 2.07
- Smiles repr: "Clc1cccc(-n2ncnc2NCc2ccccc2)c1Cl"
  Tested target: "P2X purinoceptor 7 (Homo sapiens)"
  log10 IC50: 1.68
- Smiles repr: "Clc1cccc(-c2nnnn2Cc2cccnc2)c1Cl"
  Tested target: "P2X purinoceptor 7 (Homo sapiens)"
  log10 IC50: 2.09
- Smiles repr: "CCOc1ccccc1CNc1ncnn1-c1cccc(Cl)c1Cl"
  Tested target: "P2X purinoceptor 7 (Homo sapiens)"
  log10 IC50: 1.66
- Smiles repr: "Clc1cccc(-n2ncnc2Nc2ccccc2)c1Cl"
  Tested target: "P2X purinoceptor 7 (Homo sapiens)"
  log10 IC50: 2.56
- Smiles repr: "Clc1cccc(-n2cnnc2NCc2cccnc2)c1Cl"
  Tested target: "P2X purinoceptor 7 (Homo sapiens)"
  log10 IC50: 2.55
- Smiles repr: "Cc1cccc(CNc2ncnn2-c2cccc(Cl)c2Cl)c1C"
  Tested target: "P2X purinoceptor 7 (Homo sapiens)"
  log10 IC50: 1.83
- Smiles repr: "Clc1cccc(-n2ncnc2NCc2ccccc2Oc2cccnc2)c1Cl"
  Tested target: "P2X purinoceptor 7 (Homo sapiens)"
  log10 IC50: 1.67
- Smiles repr: "CS(=O)(=O)c1ccccc1CNc1ncnn1-c1cccc(Cl)c1Cl"
  Tested target: "P2X purinoceptor 7 (Homo sapiens)"
  log10 IC50: 1.30

Entry Clc1cccc(-n2ncnc2NCc2cccnc2N2CCOCC2)c1Cl : reported log10 IC50 = ? 1.45

Ok, now COc1ccccc1CNc1ncnn1-c1cccc(Cl)c1Cl 1.76

Quick one: Clc1cccc(-n2ncnc2Nc2ccccc2N2CCOCC2)c1Cl 3.53

Now consider Cc1ncccc1CNc1nncn1-c1cccc(Cl)c1Cl and answer again. 1.46

Ok, now COc1cccc(CNc2ncnn2-c2cccc(Cl)c2Cl)c1 2.46

And the next one, Cc1ncccc1CNc1ncnn1-c1cccc(Cl)c1Cl ? 1.07

// same read-out, input: Clc1cccc(-n2ncnc2NCc2cccnc2Oc2cccnc2)c1Cl 1.14

// next record CC(C)N1CCCN(c2ncccc2CNc2nncn2-c2cccc(Cl)c2Cl)CC1 1.83

And for NC(=O)CN1CCCN(c2ncccc2CNc2nncn2-c2cccc(Cl)c2Cl)CC1 ? 1.51

Thanks! And Clc1cccc(-n2ncnc2NCc2cccnc2N2CCCC2)c1Cl ? 1.10

What would you report for FC(F)(F)Oc1ccccc1Nc1ncnn1-c1cccc(Cl)c1Cl ? 2.79

Entry Clc1cccc(-n2ncnc2NCc2cccnc2-c2ccsc2)c1Cl please 1.18

Let us now turn to CCc1ccccc1Nc1ncnn1-c1cccc(Cl)c1Cl 1.66

Further, for Clc1cccc(-n2cnnc2NCc2cccnc2-c2ccsc2)c1Cl ? 1.04

###

# Tested target: P2X purinoceptor 7 (Rattus norvegicus, UniProt Q64663)
# Sequence (Q64663 whole entry): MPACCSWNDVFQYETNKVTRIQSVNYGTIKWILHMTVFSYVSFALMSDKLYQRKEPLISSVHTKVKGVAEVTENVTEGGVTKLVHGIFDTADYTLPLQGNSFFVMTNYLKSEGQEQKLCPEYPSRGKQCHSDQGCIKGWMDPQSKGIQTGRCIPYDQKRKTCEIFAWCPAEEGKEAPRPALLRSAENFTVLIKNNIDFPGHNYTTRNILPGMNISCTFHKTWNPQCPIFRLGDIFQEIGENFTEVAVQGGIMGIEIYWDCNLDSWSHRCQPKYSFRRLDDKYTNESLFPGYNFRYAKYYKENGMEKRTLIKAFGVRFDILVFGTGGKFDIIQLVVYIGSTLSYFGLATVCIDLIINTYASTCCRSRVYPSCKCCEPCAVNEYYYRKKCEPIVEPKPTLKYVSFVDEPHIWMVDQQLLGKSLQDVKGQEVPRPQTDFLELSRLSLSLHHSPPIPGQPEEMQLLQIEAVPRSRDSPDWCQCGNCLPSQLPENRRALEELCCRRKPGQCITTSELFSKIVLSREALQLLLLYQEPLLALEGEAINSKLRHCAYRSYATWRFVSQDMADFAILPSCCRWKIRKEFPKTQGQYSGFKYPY
# Method description: Antagonist activity at rat recombinant P2X7 receptor assessed as inhibition of BzATP-induced calcium flux by FLIPR assay
Some compounds, each annotated with its measured pIC50.
Recall that pIC50 is obtained by taking minus log10 of the concentration measured in molar.

Look up pIC50 for this compound: COc1cccc(CNc2ncnn2-c2cccc(Cl)c2Cl)c1OC 6.87

What about this compound? Clc1cccc(-n2ncnc2NCc2cccnc2-c2ccsc2)c1Cl 6.86

Here is the next compound: Clc1cccc(-n2ncnc2NCc2cccnc2Oc2cccnc2)c1Cl 6.89

Would you kindly repeat that for Clc1cccc(-n2ncnc2NCc2cccnc2)c1Cl ? 5.88

Param item: Cc1cccc(CNc2ncnn2-c2cccc(Cl)c2Cl)c1 5.99

Clc1cccc(-n2ncnc2NCc2ccccc2Oc2cccnc2)c1Cl ? 6.80

###

# Tested target: P2X purinoceptor 7 (Rattus norvegicus, UniProt Q64663)
# Method description: Antagonist activity at rat recombinant P2X7 receptor assessed as inhibition of BzATP-induced calcium flux by FLIPR assay
Observable: IC50 (µM)
Provide the reading as a plain figure in µM.

Use these answered entries as a reference point.
- Smiles repr: "Clc1cccc(-n2ncnc2Nc2ccccc2N2CCOCC2)c1Cl"
  IC50 [µM]: 4.9
- Smiles repr: "COc1ccc(CNc2ncnn2-c2cccc(Cl)c2Cl)cc1"
  IC50 [µM]: 10.5
- Smiles repr: "Clc1cccc(-n2ncnc2Nc2ccccc2)c1Cl"
  IC50 [µM]: 3.89
- Smiles repr: "Cc1ncccc1CNc1nncn1-c1cccc(Cl)c1Cl"
  IC50 [µM]: 0.178

// lookup IC50 for Clc1cccc(-n2ncnc2NCc2cccnc2N2CCCC2)c1Cl 0.0282

Another compound to look at: Cc1ccc(CNc2ncnn2-c2cccc(Cl)c2Cl)cc1 7.08

Try the compound Clc1cccc(-n2ncnc2NCc2cccnc2N2CCC2)c1Cl 0.0257

// query: CSc1ccccc1CNc1ncnn1-c1cccc(Cl)c1Cl 0.288
